- tested-system: T1, Recombinant MBP-mutCALR Type 1 fusion protein (human)
- T1 construct: custom made at Cepter; also called recombinant mutCALR protein
- procedure-summary: SPR, IgG captured, 1:1 fit, Exp. 2
measured-parameter: kon (M⁻¹ s⁻¹)
The reply should contain only the number, in M⁻¹ s⁻¹.

Solved entries (count: 3):
binder	unit-descriptor	test-value
anti-mutCALR antibody clone 40 (antibody, human IgG1, lambda, V domains shown, human IgG1) VH: EVQLVQSGAEVKKPGASVKVSCKVSGYTLTESSMHWVRQAPGKGLEWMGLVDPEDGETIYAQKFQGRVTMTEDTSTDTAYMELSSLRSEDTAVYYCAREEWSGDGDDAFDIWGQGTMVTVSS VL: QSVLTQPPSVSAAPGQKVTISCSGSSSNIGSYSVSWYQQLPGTAPKLLIYDNNKRPSGIPDRFSGSNSGTSATLGITGLQTGDEADYYCGTWDSSLSAWVFGGGTKLTVLG	M⁻¹ s⁻¹	3.44e+06
anti-mutCALR antibody clone 175 (antibody, human IgG1, lambda, N297A, V domains shown, human IgG1 N297A variant of clone 17) VH: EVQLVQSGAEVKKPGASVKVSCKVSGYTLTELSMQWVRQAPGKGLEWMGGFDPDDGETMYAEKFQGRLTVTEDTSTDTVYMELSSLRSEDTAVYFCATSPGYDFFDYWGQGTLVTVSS VL: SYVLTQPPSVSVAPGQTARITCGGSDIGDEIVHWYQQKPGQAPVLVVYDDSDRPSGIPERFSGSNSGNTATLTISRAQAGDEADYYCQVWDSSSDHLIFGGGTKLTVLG	M⁻¹ s⁻¹	4.53e+06
anti-mutCALR antibody clone 57 (antibody, human IgG1, lambda, N297A, V domains shown, human IgG1 N297A variant of clone 6) VH: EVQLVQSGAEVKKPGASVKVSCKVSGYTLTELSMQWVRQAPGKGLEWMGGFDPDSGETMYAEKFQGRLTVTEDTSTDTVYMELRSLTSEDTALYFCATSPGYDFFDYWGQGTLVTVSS VL: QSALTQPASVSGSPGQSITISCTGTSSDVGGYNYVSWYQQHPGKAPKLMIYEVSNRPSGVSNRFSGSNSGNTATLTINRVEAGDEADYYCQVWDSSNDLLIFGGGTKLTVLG	M⁻¹ s⁻¹	6.12e+06

Documented kon of anti-mutCALR antibody clone 185 (antibody, human IgG1, lambda, N297A, V domains shown, human IgG1 N297A variant of clone 17) VH: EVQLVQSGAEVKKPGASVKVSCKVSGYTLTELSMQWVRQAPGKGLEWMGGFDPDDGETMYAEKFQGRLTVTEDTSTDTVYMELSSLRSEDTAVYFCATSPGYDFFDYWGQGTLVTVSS VL: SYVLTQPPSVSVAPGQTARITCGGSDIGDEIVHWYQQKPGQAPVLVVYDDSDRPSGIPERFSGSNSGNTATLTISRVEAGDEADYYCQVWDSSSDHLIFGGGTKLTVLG : 5.32e+06

Documented kon of anti-mutCALR antibody clone 131 (antibody, human IgG1, lambda, N297A, V domains shown, human IgG1 N297A variant of clone 15) VH: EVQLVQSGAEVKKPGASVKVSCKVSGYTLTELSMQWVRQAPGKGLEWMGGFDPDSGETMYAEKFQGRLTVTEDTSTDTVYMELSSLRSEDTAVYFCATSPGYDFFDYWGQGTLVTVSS VL: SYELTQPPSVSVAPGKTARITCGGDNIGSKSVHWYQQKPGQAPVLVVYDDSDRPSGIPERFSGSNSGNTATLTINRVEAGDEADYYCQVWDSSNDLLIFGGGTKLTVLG : 996000
